- Protocol details: Single-dose two-period crossover bioequivalence study, fasting: plasma pharmacokinetics of lisinopril and amlodipine (LC-MS/MS, NCA);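 further: single tablet dose 10 mg/5 mg fixed combination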
- Assay conditions: human, plasma, po, Plasma concentration of amlodipine, Max, reference (R) tablets, nominal time 168 h, maximum over subjects
Attribute measured: concentration at 168 h (ng/mL)
API: value field is a number in ng/mL; no unit string.

Any idea what its concentration at 168 h is? The compound is CCOC(=O)C1=C(COCCN)NC(C)=C(C(=O)OC)C1c1ccccc1Cl (stereo not shown) [amlodipine] 0.455

---

- Protocol details: Single-dose two-period crossover bioequivalence study, fed (high-fat breakfast): plasma pharmacokinetics of lisinopril and amlodipine (LC-MS/MS, NCA)
- Assay conditions: human, plasma, po, Plasma concentration of lisinopril, Mean, mean of 37 subjects, nominal time 3 h, reference (R) tablets
Attribute measured: concentration at 3 h
Could you kindly put the unit after your number?

Any idea what its concentration at 3 h is? The compound is `NCCCC[C@H](N[C@@H](CCc1ccccc1)C(=O)O)C(=O)N1CCC[C@H]1C(=O)O` 5.92 ng/mL

---

- Protocol details: Single-dose two-period crossover bioequivalence study, fasting: plasma pharmacokinetics of lisinopril and amlodipine (LC-MS/MS, NCA);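 further: single tablet dose 10 mg/5 mg fixed combination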
- Assay conditions: human, plasma, po, Plasma concentration of amlodipine, Min, reference (R) tablets, nominal time 6 h, minimum over subjects
Attribute measured: concentration at 6 h (ng/mL)
API: value field is a number in ng/mL; no unit string.

Any idea what its concentration at 6 h is? The compound is CCOC(=O)C1=C(COCCN)NC(C)=C(C(=O)OC)C1c1ccccc1Cl (stereo not shown) [amlodipine] 1.14

---

- Protocol details: Single-dose two-period crossover bioequivalence study, fed (high-fat breakfast): plasma pharmacokinetics of lisinopril and amlodipine (LC-MS/MS, NCA)
- Assay conditions: human, plasma, po, Plasma concentration of lisinopril, Min, minimum among subjects, nominal time 7 h, reference (R) tablets
Attribute measured: concentration at 7 h
Could you kindly put the unit after your number?

Any idea what its concentration at 7 h is? The compound is NCCCC[C@H](N[C@@H](CCc1ccccc1)C(=O)O)C(=O)N1CCC[C@H]1C(=O)O [lisinopril] 3.34 ng/mL

---

- Protocol details: Single-dose two-period crossover bioequivalence study, fasting: plasma pharmacokinetics of lisinopril and amlodipine (LC-MS/MS, NCA);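 further: single tablet dose 10 mg/5 mg fixed combination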
- Assay conditions: human, plasma, po, Plasma concentration of amlodipine, Min, reference (R) tablets, nominal time 0 h, minimum over subjects
Attribute measured: concentration at 0 h

Any idea what its concentration at 0 h is? The compound is CCOC(=O)C1=C(COCCN)NC(C)=C(C(=O)OC)C1c1ccccc1Cl (stereo not shown) 0 ng/mL

---

- Protocol details: Single-dose two-period crossover bioequivalence study, fed (high-fat breakfast): plasma pharmacokinetics of lisinopril and amlodipine (LC-MS/MS, NCA)
- Assay conditions: human, plasma, po, Plasma concentration of lisinopril, Mean, mean of 37 subjects, nominal time 4 h, reference (R) tablets
Attribute measured: concentration at 4 h (ng/mL)
API: value field is a number in ng/mL; no unit string.

Any idea what its concentration at 4 h is? The compound is `NCCCC[C@H](N[C@@H](CCc1ccccc1)C(=O)O)C(=O)N1CCC[C@H]1C(=O)O` 9.3

---

- Protocol details: Single-dose two-period crossover bioequivalence study, fasting: plasma pharmacokinetics of lisinopril and amlodipine (LC-MS/MS, NCA);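 further: single tablet dose 10 mg/5 mg fixed combination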
- Assay conditions: human, plasma, po, Plasma concentration of amlodipine, Mean, reference (R) tablets, nominal time 72 h, mean of subjects
Attribute measured: concentration at 72 h (ng/mL)
API: value field is a number in ng/mL; no unit string.

Any idea what its concentration at 72 h is? The compound is CCOC(=O)C1=C(COCCN)NC(C)=C(C(=O)OC)C1c1ccccc1Cl (stereo not shown) 0.64
